Please respond with reported IC50 for every item in the list.
Tested on: HEK293-STF3A cells
Assay: STF3A assay (STF luciferase reporter in Wnt3A-expressing HEK293 cells)
Format: cell-based
Details: Homo sapiens, 24 h, 1 day of treatment

Task: Report IC50 for `O=C(CN1CCCC2=C1C(=O)N(C1CC1)C2=O)Nc1ccc(-c2cccnc2)nn1` please.
Result: < 100 nM

Task: What about `CN1C(=O)C2=C(C1=O)N(CC(=O)Nc1ccc(-c3ccc(F)cc3)cn1)CCC2` ?
Result: < 100 nM

Task: Another compound to look at: `CN1C(=O)C2=C(C1=O)N(CC(=O)Nc1ccc(-c3nccs3)cc1)CCC2`
Result: < 100 nM

Task: Note, next up: `Cc1cnc(-c2ccc(NC(=O)CN3CCCC4=C3C(=O)N(C)C4=O)nc2)cn1`
Result: < 100 nM

Task: Same for `O=C(CN1CCCC2=C1C(=O)N(C1CC1)C2=O)Nc1ccc(-c2cccc(C(F)(F)F)c2)nn1`
Result: < 100 nM

Task: Now try `Cc1ccnc(-c2ccc(NC(=O)CN3CCCC4=C3C(=O)N(C3CC3)C4=O)nc2)c1` .
Result: < 100 nM

Task: What would you report for `O=C(CN1CCCC2=C1C(=O)N(C1CC1)C2=O)Nc1ccc(-c2cncnc2)cn1` ?
Result: < 100 nM

Task: How about this compound: `Cc1nc(-c2ccc(NC(=O)CN3CCCC4=C3C(=O)N(C3CC3)C4=O)nc2)cs1`
Result: < 100 nM

Task: Param item: `Cc1ncccc1-c1ccc(NC(=O)CN2CCCC3=C2C(=O)N(C2CC2)C3=O)nc1`
Result: < 1000 nM

Task: Try `Cc1ccncc1-c1ccc(NC(=O)CN2CCCC3=C2C(=O)N(C2CC2)C3=O)nc1` next.
Result: < 1000 nM

Task: # repeat for `CN1C(=O)C2=C(C1=O)N(CC(=O)Nc1ccc(-c3ccncc3)cc1)CCC2`
Result: < 100 nM

Task: Okay, and `Cc1cnc(-c2ccc(NC(=O)CN3CCCC4=C3C(=O)N(C3CC3)C4=O)nc2)cn1` ?
Result: < 100 nM

Task: Then this compound: C[C@@H](C(=O)Nc1ccc(-c2cccnc2)nc1)N1CCCC2=C1C(=O)N(C)C2=O (single isomer, unassigned)
Result: < 100 nM

Task: Same for `CN1C(=O)C2=C(C1=O)N(CC(=O)Nc1ccc(-c3cccc(F)c3)nc1)CCC2`
Result: < 100 nM

Task: Can you check `CN1C(=O)C2=C(C1=O)N(CC(=O)Nc1ccc(-c3ccncn3)cc1)CCC2` next?
Result: > 10000 nM

Task: Same lookup for CC(C(=O)Nc1cnc(-c2cccnc2)cn1)N1CCCC2=C1C(=O)N(C)C2=O (stereo not shown) , please.
Result: < 100 nM

---

Hi there, I'd appreciate the recorded pIC50 for every entry that follows.
Test system: HEK293-STF3A cells
Assay: STF3A assay (STF luciferase reporter in Wnt3A-expressing HEK293 cells)
Assay type: cell-based
Conditions: Homo sapiens, 24 h, 1 day of treatment
pIC50: −log10 of the molar value.

Task: Give the reported pIC50 for `Cc1ccc(-c2ccc(NC(=O)CN3CCCC4=C3C(=O)N(C3CC3)C4=O)nn2)cn1` (system: HEK293-STF3A cells).
Result: > 7.00

Task: Let us now turn to `CN1C(=O)C2=C(C1=O)N(CC(=O)Nc1ccc(-c3cncc(F)c3)nn1)CCC2`
Result: > 7.00

Task: Next up: `CN1C(=O)C2=C(C1=O)N(CC(=O)Nc1ccc(-c3cccnc3)cn1)CCC2`
Result: > 7.00

Task: Also `Cc1cc(NC(=O)CN2CCCC3=C2C(=O)N(C2CC2)C3=O)cnc1-c1cccnc1` , if possible.
Result: > 6.00

Task: Please do the same for `CN1C(=O)c2c(n(CC(=O)Nc3ccc(-c4cccnc4)cn3)ccc2=O)C1=O` as well.
Result: > 6.00

Task: Next molecule: `Cc1cncc(-c2ccc(NC(=O)CN3CCCC4=C3C(=O)N(C)C4=O)nn2)c1`
Result: > 7.00

Task: // next record `Cc1cc(NC(=O)CN2CCCC3=C2C(=O)N(C)C3=O)ccc1-c1ccccc1`
Result: > 7.00

Task: Check `Cc1cncc(-c2ccc(NC(=O)CN3CCCC4=C3C(=O)N(C3CC3)C4=O)nc2)n1` too.
Result: > 7.00

Task: Field entry: `COc1cncc(-c2ccc(NC(=O)CN3CCCC4=C3C(=O)N(C3CC3)C4=O)nn2)c1`
Result: > 7.00

Task: Same for `CN1C(=O)C2=C(C1=O)N(CC(=O)Nc1ccc(-c3cncc(F)c3)nc1)CCC2`
Result: > 7.00

Task: Field entry: C[C@@H](C(=O)Nc1ccc(-c2ccccc2)nn1)N1CCCC2=C1C(=O)N(C)C2=O (single isomer, unassigned)
Result: > 7.00

Task: Field entry: `CN1C(=O)C2=C(C1=O)N(CC(=O)Nc1ccc(-c3cccc(F)c3)nn1)CCC2`
Result: > 7.00

Task: # iterate: `COc1ccc(-c2ccc(NC(=O)CN3CCCC4=C3C(=O)N(C3CC3)C4=O)nc2)nc1`
Result: > 7.00

Task: Ok, now `Cc1cccc(-c2ccc(NC(=O)CN3CCCC4=C3C(=O)N(C)C4=O)nn2)c1`
Result: > 7.00

Task: Now this one: `O=C(CN1CCCC2=C1C(=O)N(C1CC1)C2=O)Nc1ccc(-c2cccnc2F)cn1`
Result: > 7.00

Task: Thanks! And `CN1C(=O)C2=C(C1=O)N(CC(=O)Nc1ccc(-c3cccnc3)nc1)CCC2` ?
Result: > 7.00

Task: Would you mind doing `CN1C(=O)C2=C(C1=O)N(CC(=O)Nc1ccc(-c3cncnc3)nc1)CCC2` as well?
Result: > 6.00

Task: Next up: `Cc1cc(NC(=O)CN2CCCC3=C2C(=O)N(C2CC2)C3=O)nnc1-c1cccnc1`
Result: > 5.30

Task: Would you mind doing `O=C(CN1CCCC2=C1C(=O)N(C1CC1)C2=O)Nc1cnc(-c2cncc(F)c2)cn1` as well?
Result: > 7.00

Task: Another molecule to check: `COc1cc(-c2ccccc2)ccc1NC(=O)CN1CCCC2=C1C(=O)N(C)C2=O`
Result: < 5.00

Task: Okay, and `CN1C(=O)C2=C(C1=O)N(CC(=O)Nc1ccc(-c3ccccc3)c(F)c1)CCC2` ?
Result: > 7.00

Task: How about CC(C(=O)Nc1cnc(-c2ccccc2)cn1)N1CCCC2=C1C(=O)N(C)C2=O (centres unmarked) ?
Result: > 7.00

Task: Further, for `O=C(CN1CCCC2=C1C(=O)N(C1CC1)C2=O)Nc1ccc(-c2ccc(C(F)(F)F)cc2)nn1` ?
Result: > 6.00

Task: What do you have for `O=C(CN1CCCC2=C1C(=O)N(C1CC1)C2=O)Nc1ccc(-c2ccc(F)nc2)nn1` ?
Result: > 7.00

Task: Repeat with `CN1C(=O)C2=C(C1=O)N(CC(=O)Nc1ccc(-c3ccccn3)cc1)CCC2`
Result: > 7.00

Task: # iterate: CC(C(=O)Nc1ccc(-c2cccnc2)nn1)N1CCCC2=C1C(=O)N(C)C2=O (centres unmarked)
Result: > 7.00

Task: And then `O=C(CN1CCCC2=C1C(=O)N(C1CC1)C2=O)Nc1ccc(-c2cccnc2)nc1` , what is it?
Result: > 7.00

Task: And the next one, CC(C(=O)Nc1ccc(-c2cccnc2)cn1)N1CCCC2=C1C(=O)N(C)C2=O (centres unmarked) ?
Result: > 7.00

Task: Repeat for the following molecule: CC(C(=O)Nc1ccc(-c2cccnc2)nc1)N1CCCC2=C1C(=O)N(C)C2=O (centres unmarked)
Result: > 7.00

Task: Cool, now `CN1C(=O)C2=C(C1=O)N(CC(=O)Nc1ccc(-c3ccncc3)nc1)CCC2`
Result: > 6.00

Task: And then `Cc1cc(NC(=O)CN2CCCC3=C2C(=O)N(C)C3=O)ncc1-c1cccnc1` , what is it?
Result: > 5.30

Task: Can you check CC(C(=O)Nc1cc(F)c(-c2cccnc2)cn1)N1CCCC2=C1C(=O)N(C)C2=O (centres unmarked) next?
Result: > 7.00
